test system: NF-κB; test: NF-κB-dependent luciferase reporter gene assay, HeLa κB-transformed cells, TPA stimulated; format: cell-based; conditions: Homo sapiens, HeLa, 8 h treatment, TPA 25 ng/ml 2 h after exposure, read-out: NF-κB, IC50 (concentration at which the compound halved the NF-κB activity)
REPORTED METRIC: IC50

[Q] Consider the compound COc1ccc(S[C@H]2CC(=O)C[C@@H]2O[Si](C)(C)C(C)(C)C)cc1 tested on NF-κB; state its IC50.
[A] 38 µM

[Q] Consider the compound Cc1cc(C)n(CCS[C@H]2CC(=O)C[C@@H]2O[Si](C)(C)C(C)(C)C)n1 tested on NF-κB; state its IC50.
[A] > 100 µM

[Q] Consider the compound CC(C)(C)[Si](C)(C)O[C@H]1CC(=O)C[C@@H]1Sc1ccc([N+](=O)[O-])cc1 tested on NF-κB; state its IC50.
[A] 47 µM

[Q] Consider the compound CC(=O)N[C@@H](CS[C@H]1CC(=O)C[C@@H]1O[Si](C)(C)C(C)(C)C)C(=O)OC(C)(C)C tested on NF-κB; state its IC50.
[A] > 100 µM

[Q] Consider the compound CC(C)(C)OC(=O)N[C@@H](CS[C@@H]1CC(=O)C(C)(C)C1OC(=O)C(C)(C)C)C(=O)O (stereo in doubt) tested on NF-κB; state its IC50.
[A] 14 µM

[Q] Consider the compound CC(C)(C)C(=O)OC1[C@@H](Sc2ccc3ccccc3c2)CC(=O)C1(C)C (stereo in doubt) tested on NF-κB; state its IC50.
[A] 25 µM

[Q] Consider the compound COC(=O)CS[C@H]1CC(=O)C[C@@H]1O[Si](C)(C)C(C)(C)C tested on NF-κB; state its IC50.
[A] 52 µM

###

tested on: uninfected 37RC cells; assay: Toxicity to uninfected cells, determined visually by microscopy (TD100)
REPORTED METRIC: TD100 (dose or concentration at which the compound was 100% toxic to uninfected cells) (µM)
Express it in µM; write the number only.

[Q] Determine from records and report TD100 (dose or concentration at which the compound was 100% toxic to uninfected cells) for CC(S[C@H]1CC(=O)C[C@@H]1O[Si](C)(C)C(C)(C)C)C(=O)NCC(=O)O (stereo partly shown) [CTM-110]
[A] 50

[Q] Determine from records and report TD100 (dose or concentration at which the compound was 100% toxic to uninfected cells) for CC(C)(C)[Si](C)(C)O[C@H]1CC(=O)C[C@@H]1Sc1ccc(F)cc1 [CTM-108]
[A] 50

[Q] Determine from records and report TD100 (dose or concentration at which the compound was 100% toxic to uninfected cells) for COC(=O)CCS[C@H]1CC(=O)C[C@@H]1O[Si](C)(C)C(C)(C)C [CTM-88]
[A] 50

[Q] Determine from records and report TD100 (dose or concentration at which the compound was 100% toxic to uninfected cells) for Cc1cc(C)n(CCS[C@H]2CC(=O)C[C@@H]2O[Si](C)(C)C(C)(C)C)n1 [CTM-109]
[A] 50

[Q] Determine from records and report TD100 (dose or concentration at which the compound was 100% toxic to uninfected cells) for CC(C)(C)OC(=O)N[C@@H](CS[C@H]1CC(=O)C[C@@H]1O[Si](C)(C)C(C)(C)C)C(=O)OC(C)(C)C [CTM-183]
[A] 50

[Q] Determine from records and report TD100 (dose or concentration at which the compound was 100% toxic to uninfected cells) for CC(=O)NCCS[C@H]1CC(=O)C[C@@H]1O[Si](C)(C)C(C)(C)C [CTM-83]
[A] 50

[Q] Determine from records and report TD100 (dose or concentration at which the compound was 100% toxic to uninfected cells) for Cc1ccc(S[C@H]2CC(=O)C[C@@H]2O[Si](C)(C)C(C)(C)C)cc1 [CTM-80]
[A] 50

[Q] Determine from records and report TD100 (dose or concentration at which the compound was 100% toxic to uninfected cells) for COC(=O)CS[C@H]1CC(=O)C[C@@H]1O[Si](C)(C)C(C)(C)C [CTM-87]
[A] 50

[Q] Determine from records and report TD100 (dose or concentration at which the compound was 100% toxic to uninfected cells) for CCOC(=O)[C@H](CS[C@H]1CC(=O)C[C@@H]1O[Si](C)(C)C(C)(C)C)NC(=O)OC(C)(C)C [CTM-184]
[A] 50

[Q] Determine from records and report TD100 (dose or concentration at which the compound was 100% toxic to uninfected cells) for COc1ccc(S[C@H]2CC(=O)C[C@@H]2O[Si](C)(C)C(C)(C)C)cc1 [CTM-169]
[A] 50

###

test: Alamar Blue cytotoxicity assay; assay type: cell-based; details: human
REPORTED METRIC: CC50 at 8 h (µM)
Express it in µM; write the number only.

[Q] Determine from records and report CC50 at 8 h for CC(C)(C)[Si](C)(C)O[C@H]1CC(=O)C[C@@H]1Sc1ncccn1
[A] 556

[Q] Determine from records and report CC50 at 8 h for COC(=O)CCS[C@H]1CC(=O)C[C@@H]1O[Si](C)(C)C(C)(C)C
[A] 477

[Q] Determine from records and report CC50 at 8 h for CC(C)(C)[Si](C)(C)O[C@H]1CC(=O)C[C@@H]1Sc1ccccn1
[A] 96

[Q] Determine from records and report CC50 at 8 h for CC(C)(C)[Si](C)(C)O[C@H]1CC(=O)C[C@@H]1Sc1ccncc1
[A] 220

###

Tested on: NF-κB
Test: NF-κB-dependent luciferase reporter gene assay, HeLa κB-transformed cells, TPA stimulated
Type: cell-based
Settings: Homo sapiens, HeLa, 8 h treatment, TPA 25 ng/ml 2 h after exposure, read-out: NF-κB, IC50 (concentration at which the compound halved the NF-κB activity)
Description: Method: HeLa cell clone 13B, stably transfected with a luciferase reporter plasmid controlled by the human hsp70 promoter, and HeLa κB-transformed cells, stably transfected with a luciferase reporter plasmid controlled by a synthetic NF-κB-STM construct, were maintained in DMEM medium supplemented with 10% FBS, L-glutamine (2 mM) and G418 (250 μg/ml) at 37° C. in a 5% CO2 humidified atmosphere. Cells were seeded at a density of 4×10^4 cells/well in 96-well plates. […]
REPORTED METRIC: IC50

[Q] Determine from records and report IC50 for CC(S[C@H]1CC(=O)C[C@@H]1O[Si](C)(C)C(C)(C)C)C(=O)NCC(=O)O (stereo partly drawn)
[A] > 100 µM

[Q] Determine from records and report IC50 for CC(C)(C)[Si](C)(C)O[C@H]1CC(=O)C[C@@H]1Sc1ccc(F)cc1
[A] > 100 µM

[Q] Determine from records and report IC50 for Cc1ccc(S[C@H]2CC(=O)C[C@@H]2O[Si](C)(C)C(C)(C)C)cc1
[A] > 100 µM

###

assay: Alamar Blue cytotoxicity assay; assay type: cell-based; conditions: human
REPORTED METRIC: CC50 at 8 h

[Q] Determine from records and report CC50 at 8 h for CC(C)(C)[Si](C)(C)O[C@H]1CC(=O)C[C@@H]1SCCS(=O)(=O)O
[A] > 800 µM

[Q] Determine from records and report CC50 at 8 h for CC(=O)N[C@@H](CS[C@H]1CC(=O)C[C@@H]1O[Si](C)(C)C(C)(C)C)C(=O)O
[A] > 800 µM

[Q] Determine from records and report CC50 at 8 h for COc1ccc(S[C@H]2CC(=O)C[C@@H]2O[Si](C)(C)C(C)(C)C)cc1
[A] > 800 µM
